assay: Ocular distribution of CDO in rabbits, single dose topical ocular vs. oral; format: in vivo, New Zealand White rabbit; conditions: New Zealand White, retina/choroid; rabbit, Topical eye administration 100 mg/ml = 3.3 mg, 1 h; read-out: CDO μg/g tissue Retina/Choroid

| compound | concentration at 1 h, µg/g |
| --- | --- |
| O=S(=O)(O)c1cc(O)ccc1O [CDO, Calcium dobesilate monohydrate] | 6.41 |

----------
assay: Ocular distribution of CDO in rats, single dose topical ocular vs. oral; assay type: in vivo, Sprague Dawley (SD) rat; conditions: Sprague Dawley, sclera; rat, topical eye 10 mg/ml (eye drop of 10 μl) = 0.1 mg, 3 h; read-out: CDO concentrations Sclera

| compound | concentration at 3 h [ng/g] |
| --- | --- |
| O=S(=O)(O)c1cc(O)ccc1O [CDO, Calcium dobesilate monohydrate] | 770 |
